Attribute: Ratio
experiment: Ratio of drug uptake in pons to cerebellum in anesthetized cynomolgus monkey after 145 mins postinjection
Format: ADME, organism-based, Macaca fascicularis
assay_setup: in vivo
recorded_endpoint: Ratio

compound: O=C(OCCC[18F])C1C2CCC(CC1c1cccc(/C=C\Br)c1)N2 (stereo not given)
recorded_endpoint: Ratio
experimental_value: 1.6

compound: O=C(OCC[18F])C1C2CCC(CC1c1ccc(/C=C\I)cc1)N2 (stereo not given)
recorded_endpoint: Ratio
experimental_value: 2.3

compound: O=C(OCCC[18F])C1C2CCC(CC1c1cccc(/C=C\I)c1)N2 (stereo not given)
recorded_endpoint: Ratio
experimental_value: 1.6

compound: O=C(OCC[18F])C1C2CCC(CC1c1cccc(/C=C\Br)c1)N2 (stereo not given)
recorded_endpoint: Ratio
experimental_value: 1.8

compound: O=C(OCC[18F])C1C2CCC(CC1c1cccc(/C=C\I)c1)N2 (stereo not given)
recorded_endpoint: Ratio
experimental_value: 1.4

* * *

Attribute: Drug uptake
System: Putamen
experiment: Drug uptake in anesthetized cynomolgus monkey brain putamen after 27.5 mins postinjection
Format: ADME, organism-based, Macaca fascicularis
Parameters: unit not given here
assay_setup: in vivo

molecule: O=C(OCC[18F])C1C2CCC(CC1c1cccc(/C=C\I)c1)N2 (stereo not given)
Drug uptake: 4.16
--
molecule: O=C(OCC[18F])C1C2CCC(CC1c1ccc(/C=C\I)cc1)N2 (stereo not given)
Drug uptake: 3.38
--
molecule: O=C(OCCC[18F])C1C2CCC(CC1c1cccc(/C=C\I)c1)N2 (stereo not given)
Drug uptake: 4.9
--
molecule: O=C(OCC[18F])C1C2CCC(CC1c1cccc(/C=C\Br)c1)N2 (stereo not given)
Drug uptake: 4.67
--
molecule: O=C(OCCC[18F])C1C2CCC(CC1c1cccc(/C=C\Br)c1)N2 (stereo not given)
Drug uptake: 5.95

* * *

Test system: Thalamus
experiment: Drug uptake in anesthetized cynomolgus monkey brain thalamus after 55 mins postinjection
Assay type: ADME, organism-based, Macaca fascicularis
Parameters: unit not given here
assay_setup: in vivo
# note: exactly 4 is not below, so it is class 0; use class 1 for Drug uptake strictly under it

molecule: O=C(OCCC[18F])C1C2CCC(CC1c1cccc(/C=C\I)c1)N2 (stereo not given)
group: class 0
//
molecule: O=C(OCC[18F])C1C2CCC(CC1c1cccc(/C=C\Br)c1)N2 (stereo not given)
group: class 0
//
molecule: O=C(OCC[18F])C1C2CCC(CC1c1ccc(/C=C\I)cc1)N2 (stereo not given)
group: class 1
//
molecule: O=C(OCCC[18F])C1C2CCC(CC1c1cccc(/C=C\Br)c1)N2 (stereo not given)
group: class 0
//
molecule: O=C(OCC[18F])C1C2CCC(CC1c1cccc(/C=C\I)c1)N2 (stereo not given)
group: class 0

* * *

Test system: Caudate
experiment: Drug uptake in anesthetized cynomolgus monkey brain caudate after 85 mins postinjection
Assay type: ADME, organism-based, Macaca fascicularis, Caudate nucleus
assay_setup: in vivo

compound: O=C(OCC[18F])C1C2CCC(CC1c1ccc(/C=C\I)cc1)N2 (stereo not given)
assayed_target: Caudate
Drug uptake: 3.03
--
compound: O=C(OCCC[18F])C1C2CCC(CC1c1cccc(/C=C\Br)c1)N2 (stereo not given)
assayed_target: Caudate
Drug uptake: 5.23
--
compound: O=C(OCC[18F])C1C2CCC(CC1c1cccc(/C=C\Br)c1)N2 (stereo not given)
assayed_target: Caudate
Drug uptake: 4.06
--
compound: O=C(OCC[18F])C1C2CCC(CC1c1cccc(/C=C\I)c1)N2 (stereo not given)
assayed_target: Caudate
Drug uptake: 3.53
--
compound: O=C(OCCC[18F])C1C2CCC(CC1c1cccc(/C=C\I)c1)N2 (stereo not given)
assayed_target: Caudate
Drug uptake: 3.94
